Reference for the values: patent US20090069319A1

assay: Functional Dkk1-LRP5-TCF-Luciferase Assay in U2OS Cells (table columns: A=MAX FOLD Induction/DMSO CONTROL; B=fold induction @ 2.0 uM; C=fold induction @ 20.0 uM); type: cell-based, Human; conditions: Homo sapiens, U2OS; 2.0 uM compound

| Structure String | fold induction at 2 µM |
| --- | --- |
| FC(F)(F)c1ccc(-c2nc3c(-c4ccc5ccccc5c4)ccnc3n2C2CCNCC2)cc1 | 1.28 |
| COc1cccc(-c2nc3c(-c4ccc5ccccc5c4)ccnc3n2C2CCNCC2)c1 | 1.25 |
| O=C(NC1CCCCC1)N1CCC(n2cnc3c(-c4ccc5ccccc5c4)ccnc32)CC1 | 0.97 |
| c1ccc2cc(-c3ccnc4c3nc(-c3ccnc5ccccc35)n4C3CCNCC3)ccc2c1 | 1.07 |
| Oc1ccc(-c2nc3c(-c4ccc5ccccc5c4)ccnc3n2C2CCNCC2)cc1 | 1.3 |
| Fc1cccc(-c2nc3c(-c4ccc5ccccc5c4)ccnc3n2C2CCNCC2)c1F | 1.9 |
| Cc1cc(-c2nc3c(-c4ccc5ccccc5c4)ccnc3n2C2CCNCC2)oc1C | 1.54 |
| FC(F)(F)c1cccc(Oc2cccc(-c3nc4c(-c5ccc6ccccc6c5)ccnc4n3C3CCNCC3)c2)c1 | 1.29 |
| c1ccc(CN2CCC(n3cnc4c(-c5ccc6ccccc6c5)ccnc43)CC2)cc1 | 0.84 |
| COc1ccc2[nH]cc(-c3nc4c(-c5ccc6ccccc6c5)ccnc4n3C3CCNCC3)c2c1 | 1.2 |
| CN(C)C(=O)N1CCC(n2cnc3c(-c4ccc5ccccc5c4)ccnc32)CC1 | 1.94 |
| CC(C)c1ccc(-c2nc3c(-c4ccc5ccccc5c4)ccnc3n2C2CCNCC2)cc1 | 1.03 |
| O=c1[nH]cc(-c2nc3c(-c4ccc5ccccc5c4)ccnc3n2C2CCNCC2)c(=O)[nH]1 | 1.94 |
| [O-][n+]1ccc(-c2nc3c(-c4ccc5ccccc5c4)ccnc3n2C2CCNCC2)cc1 | 1.45 |
| COc1ccccc1-c1nc2c(-c3ccc4ccccc4c3)ccnc2n1C1CCNCC1 | 1.99 |
| O=[N+]([O-])c1cc(-c2nc3c(-c4ccc5ccccc5c4)ccnc3n2C2CCNCC2)ccc1N1CCOCC1 | 1.44 |
| CC(C)(C)c1ccc(-c2nc3cc(-c4ccc5ccccc5c4)cnc3n2C2CCNCC2)cc1 | 1.13 |
| Cn1c(-c2nc3c(-c4ccc5ccccc5c4)ccnc3n2C2CCNCC2)cc2ccccc21 | 1.17 |
| c1ccc2cc(-c3ccnc4c3nc(C3CCCCC3)n4C3CCNCC3)ccc2c1 | 1.88 |
| c1ccc2cc(-c3cnc4c(c3)nc(-c3cccc5ccccc35)n4C3CCNCC3)ccc2c1 | 1.11 |
| c1ccc2cc(-c3ccnc4c3nc(-c3ccc5ccccc5n3)n4C3CCNCC3)ccc2c1 | 0.01 |
| Clc1cccc(-c2nc3c(-c4ccc5ccccc5c4)ccnc3n2C2CCNCC2)c1 | 1.5 |
| O=[N+]([O-])c1ccccc1-c1nc2c(-c3ccc4ccccc4c3)ccnc2n1C1CCNCC1 | 1.14 |
| CC(C)NC(=O)N1CCC(n2c(=O)[nH]c3c(-c4ccc5ccccc5c4)ccnc32)CC1 | 1.42 |
| c1ccc2cc(-c3ccnc4c3ncn4CCCn3ccnc3)ccc2c1 | 1.76 |
| Cc1ccc(-c2nc3c(-c4ccc5ccccc5c4)ccnc3n2C2CCNCC2)cc1 | 1.9 |
| CCCc1nc2c(-c3ccc4ccccc4c3)ccnc2n1C1CCNCC1 | 1.93 |
| Clc1ccc(-c2nc3cc(-c4ccc5ccccc5c4)cnc3n2C2CCNCC2)c(Cl)c1 | 1.04 |
| c1ccc2cc(-c3ccnc4c3nc(-c3cc5ccccc5s3)n4C3CCNCC3)ccc2c1 | 1.02 |
| CC(=O)n1cc(-c2nc3c(-c4ccc5ccccc5c4)ccnc3n2C2CCNCC2)c2ccccc21 | 1.48 |
| Cc1cccc(-c2nc3c(-c4ccc5ccccc5c4)ccnc3n2C2CCNCC2)c1 | 1.91 |
| c1ccc2cc(-c3cnc4c(c3)nc(-c3cccc5ncccc35)n4C3CCNCC3)ccc2c1 | 1.29 |
| Cc1nc(-c2nc3c(-c4ccc5ccccc5c4)ccnc3n2C2CCNCC2)c[nH]1 | 1.04 |
| c1ccc2cc(-c3ccnc4c3ncn4CC3CCNCC3)ccc2c1 | 2.72 |
| c1ccc2cc(-c3cnc4c(c3)nc(-c3cccc5cccnc35)n4C3CCNCC3)ccc2c1 | 1.61 |
| COC(=O)N1CCC(n2cnc3c(-c4ccc5ccccc5c4)ccnc32)CC1 | 1.08 |
| c1ccc2cc(-c3ccc4ncn(C5CCNCC5)c4n3)ccc2c1 | 0.32 |
| c1ccc2cc(-c3ccnc4c3nc(-c3ccc5ccccc5c3)n4C3CCNCC3)ccc2c1 | 1.02 |
